Recorded measurements of normalized growth, one per entry
- protocol description: chemical genetic growth profiling, strain panel (AID 1159580);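 further: tested at 20 µM; growth read once vehicle control cultures reached saturation at 30 °C; 1 = growth at the plate median or of vehicle wells; lower values mean less growth of the strain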
- run parameters: S. cerevisiae deletion strains, growth OD, locus YER155C, strain BEM2, hits give low values
Among all 5,500 compounds or so, about 2,000 (36%) were called active. About 18% were inconclusive and are not listed. This is one part of the list.

A selection of reference data follows.
- compound: "NCC(N)C(=O)c1ccccc1 (centres undefined)"
  normalized growth: "1.01 (inactive)"
- compound: "COC(=O)c1c(OC)cc2c(c1C)Oc1c(Cl)c(OC(C)=O)c(Cl)c(C)c1C(=O)O2"
  normalized growth: "0.992 (inactive)"
- compound: "Oc1cccc(O)c1"
  normalized growth: "1 (inactive)"
- compound: "C/C1=C\\CC(C)(C)/C=C/CC2(C)OC2CC1 (centres undefined)"
  normalized growth: "1 (inactive)"

Prompt: normalized growth for Oc1c(Cl)cc(Cl)cc1Sc1cc(Cl)cc(Cl)c1O ?
Completion: 0.985 (inactive)

Prompt: normalized growth for Cc1cc(=O)oc2cc(O)c(O)cc12 ?
Completion: 1.01 (inactive)

Prompt: normalized growth for CC(C)CCCC(C)[C@H]1CCC2C3C(=O)C=C4C[C@@H](O)CC[C@]4(C)C3CC[C@@]21C (some centres undefined) ?
Completion: 1.01 (inactive)

Prompt: normalized growth for O=C1NC(O)=NC1(c1ccccc1)c1ccccc1 ?
Completion: 1.02 (inactive)

Prompt: normalized growth for NCC(=O)c1ccccc1 ?
Completion: 1.01 (inactive)
